# system: T1, human CNTN4 antigen expressed on the cell membrane of 293FT cells (human, UniProt Q8IWV2 19-1000)
# T1 construct: whole, on cells; also called Human CNTN4 transfected cell
# T1 sequence (looked up): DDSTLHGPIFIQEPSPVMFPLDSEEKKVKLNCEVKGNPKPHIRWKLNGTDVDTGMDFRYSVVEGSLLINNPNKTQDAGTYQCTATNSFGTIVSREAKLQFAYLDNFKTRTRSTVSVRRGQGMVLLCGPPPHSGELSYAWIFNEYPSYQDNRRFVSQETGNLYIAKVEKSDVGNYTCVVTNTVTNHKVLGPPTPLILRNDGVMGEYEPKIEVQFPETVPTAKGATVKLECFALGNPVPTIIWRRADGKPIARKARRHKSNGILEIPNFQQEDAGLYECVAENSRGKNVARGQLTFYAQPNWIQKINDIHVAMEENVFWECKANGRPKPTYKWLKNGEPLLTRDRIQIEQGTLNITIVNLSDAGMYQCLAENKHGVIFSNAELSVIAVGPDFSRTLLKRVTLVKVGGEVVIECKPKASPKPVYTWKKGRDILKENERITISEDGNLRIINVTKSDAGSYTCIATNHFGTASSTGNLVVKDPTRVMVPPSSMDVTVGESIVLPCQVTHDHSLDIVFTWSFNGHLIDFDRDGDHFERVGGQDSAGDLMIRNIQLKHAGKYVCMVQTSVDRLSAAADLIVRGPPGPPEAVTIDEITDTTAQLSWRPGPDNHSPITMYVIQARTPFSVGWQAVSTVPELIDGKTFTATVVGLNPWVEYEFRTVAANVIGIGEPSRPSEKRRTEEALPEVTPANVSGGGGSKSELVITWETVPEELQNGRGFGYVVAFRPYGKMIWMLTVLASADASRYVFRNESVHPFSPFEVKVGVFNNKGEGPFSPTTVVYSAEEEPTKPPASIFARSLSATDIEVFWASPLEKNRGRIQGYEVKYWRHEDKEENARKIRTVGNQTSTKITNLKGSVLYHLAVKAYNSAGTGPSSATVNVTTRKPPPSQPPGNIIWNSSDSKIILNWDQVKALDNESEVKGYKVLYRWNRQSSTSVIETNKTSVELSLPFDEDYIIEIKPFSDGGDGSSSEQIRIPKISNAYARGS
# assaySummary: FACS, 293FT cells transfected with human CNTN4, 40 ug/mL, anti-hFc-PE
recordedMetric: Shift % (%)
Note: unit % is implicit; provide only the numeric part.

Reference set, count: 2
{"columns": ["binder", "unitAnnotation", "reportedValue"],
 "data": [
  ["anti-CNTN4 IgG A35SF37 (antibody, V domains shown, human IgG4 (S228P)) VH: AVTLDESGGGLHTPGGALSLVCKASGFTFSSYGMAWVRQAPGKGLEWVAGITSSGSSAGYGPAVKGRATISRDNGQSTVRLQLNNLRAEDTATYYCAKDGYIYSGADSDSIDAWGHGTEVIVSS VL: ALTQPSSVSANLGGTVKITCSGGSNNYGWYQQKSPGSAPVTVIYYNNKRPSDIPSRFSGSKSGSTATLTITGVQAEDEAVYFCGGYDSSSNSDVYGAGTTLTVL", "%", 86.6],
  ["anti-CNTN4 IgG A13SF8 (antibody, V domains shown, human IgG4 (S228P)) VH: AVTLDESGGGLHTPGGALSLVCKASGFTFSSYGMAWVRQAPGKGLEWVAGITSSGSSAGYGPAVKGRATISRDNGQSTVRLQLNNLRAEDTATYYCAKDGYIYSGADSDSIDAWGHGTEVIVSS VL: ALTQPSSVSANPGGTVKITCSGSGNYGWYQQKSPGSALVTVIYYNDKRPSDIPSRFSGSTSGSTGTLTITGVQVEDEAVYYCGGYDGYSFASIFGAGTTLTVL", "%", 90.4]
]}

## Task Tell me measured Shift % for anti-CNTN4 IgG A35WB1 (antibody, V domains shown, human IgG4 (S228P)) VH: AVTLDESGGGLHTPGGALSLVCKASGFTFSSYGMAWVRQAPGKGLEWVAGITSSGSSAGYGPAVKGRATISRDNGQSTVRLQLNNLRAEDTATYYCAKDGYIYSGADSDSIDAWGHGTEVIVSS VL: ALTQPSSVSANPGETVKITCSGGSGSYGWYQQKSPGSAPVTVIYNNDQRPSNIPSRFSGSKSGSTATLTITGVQVEDEAVYFCGGWDSNSGAIFGAGTTLTVL please.
## Result 83.9

## Task Give a short answer stating reported Shift % for anti-CNTN4 IgG A35SF5 (antibody, V domains shown, human IgG4 (S228P)) VH: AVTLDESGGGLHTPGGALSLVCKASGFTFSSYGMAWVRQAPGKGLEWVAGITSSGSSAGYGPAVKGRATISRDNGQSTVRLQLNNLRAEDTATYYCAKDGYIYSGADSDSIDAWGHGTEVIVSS VL: ALTQPSSVSANPGETVEITCSGSSGSNYGWYQQKSPGSAPVTLIYYNDNRPSDIPSRFSGSKSGSTGTLTITGVQVEDEAVYYCGAWESSSNPDIFGAGTTLTVL .
## Result 82.6

## Task Return value of Shift % for input anti-CNTN4 IgG A35SF39 (antibody, V domains shown, human IgG4 (S228P)) VH: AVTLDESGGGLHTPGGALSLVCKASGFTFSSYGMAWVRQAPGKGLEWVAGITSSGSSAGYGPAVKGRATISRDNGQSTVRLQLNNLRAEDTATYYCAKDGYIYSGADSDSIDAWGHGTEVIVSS VL: ALTQPSSVSANLGGTVKITCSGGSGSYGWYQQKSPGSAPVTVIYNNNNRPSDIPSRFSGSTSGSTGTLTITGVRAEDEAVYFCGGYDTDSPIFGAGTTLTVL , no commentary.
## Result 80

## Task Please report Shift % for the following binder: anti-CNTN4 IgG A13WB25 (antibody, V domains shown, human IgG4 (S228P)) VH: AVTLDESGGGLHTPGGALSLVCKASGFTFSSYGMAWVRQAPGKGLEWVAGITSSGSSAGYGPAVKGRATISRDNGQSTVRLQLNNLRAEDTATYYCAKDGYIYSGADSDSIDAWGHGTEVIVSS VL: ALTQPSSVSANLGGTVEITCSGGGGSYGWYQQKSPGSAPVTVIYYNDKRPSDIPSRFSGSKSGSTGTLTITGVQAEDEAVYFCGGYDGSTYAGIFGAGTTLTVL
## Result 82.4

## Task Find the measured Shift % of anti-CNTN4 IgG A13SF74 (antibody, V domains shown, human IgG4 (S228P)) VH: AVTLDESGGGLQTPGGALSLVCKASGFTLSSYAMQWVRQAPGKGLEWVAGISKGGGSTAYGAAVKGRATISRDNGQSTVRLQLNNLRAEDTATYFCAKTTDSNCCSSDSIDAWGHGTEVIVSS VL: ALTQPSSVSANPGETVKITCSGNSSGCSWYGWFQQKSPGSALVTVIYDNTNRPSNIPSRFSGSRSGSTATLTITGVQAEDEAIYFCGIADSSGAGIFGAGTTLTVL and report it.
## Result 84.1

## Task Could you please provide reported Shift % for anti-CNTN4 IgG A13SF20 (antibody, V domains shown, human IgG4 (S228P)) VH: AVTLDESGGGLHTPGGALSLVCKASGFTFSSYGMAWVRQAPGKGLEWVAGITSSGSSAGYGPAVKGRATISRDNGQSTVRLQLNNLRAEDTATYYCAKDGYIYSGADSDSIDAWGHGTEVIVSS VL: ALTQPSSVSANLGGTVEITCSGGSGSYGWYQQKAPGSAPVTLIYNSDKRPSDIPSRFSGSKSGSTGTLTITGVQAEDEAVYFCGGYDSSAIFGAGTTLTVL ? Thanks!
## Result 82.2

## Task Provide Shift % value for the following binder: anti-CNTN4 IgG A35SF75 (antibody, V domains shown, human IgG4 (S228P)) VH: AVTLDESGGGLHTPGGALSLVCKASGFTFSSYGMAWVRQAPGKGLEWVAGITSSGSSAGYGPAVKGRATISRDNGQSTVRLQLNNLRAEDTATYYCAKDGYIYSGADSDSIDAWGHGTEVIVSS VL: ALTQPSSVSANPGVTVKITCSGGGGSYGWYQQKAPGSAPVTLIYNNTNRPSDIPSRFSGSRSGSTNTLTITGVQAEDEAVYFCGGYDSNTDYVGFGAGTTLTVL
## Result 84.8

## Task Give the reported value of Shift % for this record: anti-CNTN4 IgG A35SF13 (antibody, V domains shown, human IgG4 (S228P)) VH: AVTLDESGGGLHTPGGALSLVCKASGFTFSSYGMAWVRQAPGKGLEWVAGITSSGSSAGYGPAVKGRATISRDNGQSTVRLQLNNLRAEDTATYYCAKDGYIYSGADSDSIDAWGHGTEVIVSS VL: ALTQPSSVSANPGETVKITCSGGGGSYGWYQQKSPGSALVTVIYNNDNRPSNIPSRLSGSKSGSTATLTITGVRAEDEAVYFCGSADNNGYIAIFGAGTTLTVL
## Result 82.1

## Task Please indicate Shift % recorded for anti-CNTN4 IgG A13SF21 (antibody, V domains shown, human IgG4 (S228P)) VH: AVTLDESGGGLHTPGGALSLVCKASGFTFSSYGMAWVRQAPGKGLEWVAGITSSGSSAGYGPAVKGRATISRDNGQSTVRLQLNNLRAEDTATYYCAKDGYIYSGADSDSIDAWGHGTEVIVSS VL: ALTQPSSVSANLGGTVEITCSGSSGSYGWYQQKAPGSAPVTVIYNNNNRPSGIPSRFSGALSGSTATLTITGVQAEDEAVYFCGGYDSSTYVGIFGAGTTLTVL
## Result 80.4
